Every entry's value here was drawn from paper PMC9293652.

- testSystem: T1, WWOX WW1-WW2 tandem domain (amino acids 16-91) (human)
- T1 chain: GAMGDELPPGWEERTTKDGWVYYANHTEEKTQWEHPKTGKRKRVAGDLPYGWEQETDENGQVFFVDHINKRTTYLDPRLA
- experimentalDetails: ITC
property: Kd (µM)

a: GTVLPPPPYRHRNGGGGGTVLPPPPYRHRN [ErbB4 double-motif peptide PY3PY3 (polyglycine linker)]
b: AFNIPPPIYTSRARIDSNRSEIGHSPPPAYTPMS [ErbB4 double-motif peptide PY1PY2 (1027-1060, natural linker)]
c: AFNIPPPIYTSRAGGGGGHSPPPAYTPMS [ErbB4 double-motif peptide PY1PY2S (natural linker replaced by polyglycine)]
d: AFNIPPPIYTSRAGGGGGTVLPPPPYRHRN [ErbB4 double-motif peptide PY1PY3 (polyglycine linker)]
Enquiry: Hello, I need these entries ordered by Kd, highest reading first. Thanks! Answer by naming the labels in the order asked.
Return: c, b, d, a
(c: 21 µM, b: 14 µM, d: 8 µM, a: 3.1 µM)
